assayed.system: JAK2 (Homo sapiens, UniProt O60674)
Sequence (O60674 826-1132 limits assumed): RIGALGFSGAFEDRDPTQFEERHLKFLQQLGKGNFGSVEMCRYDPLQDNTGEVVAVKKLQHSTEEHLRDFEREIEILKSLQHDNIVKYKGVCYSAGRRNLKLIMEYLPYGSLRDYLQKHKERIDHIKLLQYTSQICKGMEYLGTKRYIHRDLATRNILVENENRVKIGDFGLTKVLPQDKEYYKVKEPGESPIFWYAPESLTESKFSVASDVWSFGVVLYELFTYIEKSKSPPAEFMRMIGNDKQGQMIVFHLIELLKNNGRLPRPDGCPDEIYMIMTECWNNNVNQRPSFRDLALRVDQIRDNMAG
protocol.details: JAK2 kinase inhibition, ADP-Glo luminescence assay
Assay type: biochemical
Parameters: purchased Carna 08-045
condition.info: substrate IGF1Rtide
measurement.label: IC50 (nM)

CCc1cc(O)c(F)cc1-c1ccc2c(-c3nc(CNS(C)(=O)=O)c[nH]3)n[nH]c2c1	1.32
CCc1cc(O)c(F)cc1-c1ccc2c(-c3nc(CNc4cccnc4)c[nH]3)n[nH]c2c1	1.2
CCc1cc(O)c(F)cc1-c1ccc2c(-c3nc(CN(C)CCO)c[nH]3)n[nH]c2c1	1.3
CCc1cc(O)c(F)cc1-c1ccc2c(-c3nc(CN4CCN(CC)CC4)c[nH]3)n[nH]c2c1	1.2
